# SYSTEM NAME: MDR1 (Homo sapiens)
# Construct: host or cells: MDCK-MDR1 (Preadyport)
# Sequence (P08183 whole entry): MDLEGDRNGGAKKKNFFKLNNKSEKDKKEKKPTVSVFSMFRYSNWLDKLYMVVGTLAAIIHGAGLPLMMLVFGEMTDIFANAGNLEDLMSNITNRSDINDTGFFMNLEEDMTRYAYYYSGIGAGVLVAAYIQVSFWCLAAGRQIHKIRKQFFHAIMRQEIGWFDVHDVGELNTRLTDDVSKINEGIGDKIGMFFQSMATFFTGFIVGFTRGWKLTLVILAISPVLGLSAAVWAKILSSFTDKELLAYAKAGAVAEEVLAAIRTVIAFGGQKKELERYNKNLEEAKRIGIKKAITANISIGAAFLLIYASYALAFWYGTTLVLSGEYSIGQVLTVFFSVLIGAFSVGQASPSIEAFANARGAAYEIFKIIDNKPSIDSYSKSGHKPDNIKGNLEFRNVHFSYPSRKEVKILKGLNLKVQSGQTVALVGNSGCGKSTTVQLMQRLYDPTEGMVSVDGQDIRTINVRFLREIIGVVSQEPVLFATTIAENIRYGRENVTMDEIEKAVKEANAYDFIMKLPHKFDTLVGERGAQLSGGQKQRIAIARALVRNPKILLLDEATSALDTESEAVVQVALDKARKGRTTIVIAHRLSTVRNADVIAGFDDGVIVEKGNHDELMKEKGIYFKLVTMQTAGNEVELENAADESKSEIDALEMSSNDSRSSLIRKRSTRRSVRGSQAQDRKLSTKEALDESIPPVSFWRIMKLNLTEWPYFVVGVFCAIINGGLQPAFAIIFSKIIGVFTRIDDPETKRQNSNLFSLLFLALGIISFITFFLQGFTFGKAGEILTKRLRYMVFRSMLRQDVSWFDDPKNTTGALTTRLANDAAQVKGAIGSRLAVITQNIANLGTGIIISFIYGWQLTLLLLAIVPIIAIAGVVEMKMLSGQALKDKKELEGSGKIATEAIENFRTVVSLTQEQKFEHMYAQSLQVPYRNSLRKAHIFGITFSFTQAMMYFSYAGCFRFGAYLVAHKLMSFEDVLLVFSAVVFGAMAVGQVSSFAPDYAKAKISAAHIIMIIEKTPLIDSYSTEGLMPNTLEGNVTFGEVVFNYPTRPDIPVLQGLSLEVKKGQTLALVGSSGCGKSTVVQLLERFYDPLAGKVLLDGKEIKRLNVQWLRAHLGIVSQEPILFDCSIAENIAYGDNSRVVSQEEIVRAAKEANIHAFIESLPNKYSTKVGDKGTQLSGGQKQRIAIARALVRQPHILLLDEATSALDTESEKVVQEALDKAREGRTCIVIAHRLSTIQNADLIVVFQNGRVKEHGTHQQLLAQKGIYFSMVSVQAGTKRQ
# ASSAY TEXT: MDR1 efflux substrate assay in MDCK-MDR1
# Format: in vitro ADME
# CONDITION INFO: dog; MDCK-MDR1, 5µM, 60 min, pH 7.4; read-out: Papp A (donor) to B (acceptor)
The label depends only on Papp A→B at 60 min, 5 µM: YES if it is at least 1 ×10⁻⁶ cm/s, NO if it is smaller.

Qu. Given N[C@H]1CCC[C@@H](Nc2nc(NCc3ccc(-c4ccccn4)cc3)n3ncc(Br)c3n2)C1 [Compound 2670] , state whether its Papp A→B at 60 min, 5 µM is at least 1 ×10⁻⁶ cm/s.
Ans. NO

Qu. Determine whether measured Papp A→B at 60 min, 5 µM meets or exceeds 1 ×10⁻⁶ cm/s for CC[C@@]1(O)C(=O)OCc2c1cc1n(c2=O)Cc2c-1nc1cc(F)c(C)c3c1c2[C@@H](N)CC3 [Exatecan, reference compound]
Ans. YES

Qu. Check the entry NCC1CCN(c2nc(NCc3ccc(-c4ccccn4)cc3)n3ncc(Br)c3n2)CC1 [Compound 2560] : does Papp A→B at 60 min, 5 µM equal or exceed 1 ×10⁻⁶ cm/s?
Ans. NO

Qu. Hi, just wondering whether N[C@H]1CC[C@@H](Nc2nc(NCc3ccc(-c4ccccn4)cc3)n3ncc(Br)c3n2)CC1 [Compound 2568] shows Papp A→B at 60 min, 5 µM of 1 ×10⁻⁶ cm/s or higher.
Ans. NO

Qu. Form field: Papp A→B at 60 min, 5 µM at least 1 ×10⁻⁶ cm/s? Entry: Brc1cnn2c(NCc3ccc(-c4ccccn4)cc3)nc(NC[C@@H]3CCCN3)nc12 [Compound 2571]
Ans. NO

Qu. Can CN(CCN)c1nc(NCc2ccc(-c3ccccn3)cc2)n2ncc(Br)c2n1 [Compound 2600] be said to have Papp A→B at 60 min, 5 µM at or above 1 ×10⁻⁶ cm/s?
Ans. YES

Qu. Is reported Papp A→B at 60 min, 5 µM greater than or equal to 1 ×10⁻⁶ cm/s here: CNCCN(C)c1nc(NCc2ccc(-c3ccccn3)cc2)n2ncc(Br)c2n1 [Compound 2605]
Ans. YES

---

# SYSTEM NAME: BCRP (Homo sapiens, UniProt Q9UNQ0)
# Construct: host or cells: MDCK-BCRP (Preadyport)
# Sequence (Q9UNQ0 1-655): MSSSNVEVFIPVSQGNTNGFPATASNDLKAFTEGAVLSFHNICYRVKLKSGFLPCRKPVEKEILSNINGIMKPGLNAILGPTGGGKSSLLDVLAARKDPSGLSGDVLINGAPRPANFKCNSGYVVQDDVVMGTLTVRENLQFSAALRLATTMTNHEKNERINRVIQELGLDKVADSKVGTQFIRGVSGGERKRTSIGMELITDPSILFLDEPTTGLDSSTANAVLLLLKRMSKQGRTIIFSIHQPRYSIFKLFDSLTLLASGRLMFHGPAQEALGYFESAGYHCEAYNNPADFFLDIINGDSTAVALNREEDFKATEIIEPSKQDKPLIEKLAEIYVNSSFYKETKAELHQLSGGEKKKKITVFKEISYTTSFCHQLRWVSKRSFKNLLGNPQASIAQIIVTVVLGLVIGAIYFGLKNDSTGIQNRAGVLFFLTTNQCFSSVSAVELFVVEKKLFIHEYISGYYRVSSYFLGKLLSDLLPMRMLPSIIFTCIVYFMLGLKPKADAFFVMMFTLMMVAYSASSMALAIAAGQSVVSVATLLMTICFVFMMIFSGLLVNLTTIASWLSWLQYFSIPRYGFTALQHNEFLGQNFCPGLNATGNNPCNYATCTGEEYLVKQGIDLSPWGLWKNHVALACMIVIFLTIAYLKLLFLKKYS
# ASSAY TEXT: BCRP efflux substrate assay in MDCK-BCRP
# Assay type: in vitro ADME
# CONDITION INFO: dog; MDCK-BCRP, 5µM, 60 min, pH 7.4; read-out: Papp A (donor) to B (acceptor)
QUANTITY MEASURED: Papp A→B at 1 h, 5 µM (×10⁻⁶ cm/s)
Write the answer as a number in ×10⁻⁶ cm/s, unit excluded.

Papp A→B at 1 h, 5 µM on BCRP (Homo sapiens, UniProt Q9UNQ0) for N[C@H]1CC[C@H](Nc2nc(NCc3ccc(-c4ccccn4)cc3)n3ncc(Br)c3n2)CC1 is 5.49

Ref: patent EP4512427A1
